The reported numbers originate from ChEMBL document CHEMBL4428040.

Tested on: HeLa
Assay: Growth inhibition of human HeLa cells
Assay type: functional, cell-based
Readout label: pIC50
Value format note: pIC50 is -log10 of concentration (mol/L); just state the number.

Q: Give pIC50 only, for Cc1ccc(OS(=O)(=O)N2CCN(Cc3cc([N+](=O)[O-])c4cccnc4c3O)CC2)cc1 , using HeLa data.
A: 6.15

----------
Tested on: HeLa
Experiment: Cytotoxicity against human HeLa cells assessed as reduction in cell viability at 1:1 CuCl2:compound molar ratio after 48 hrs by resazurin assay
Assay type: functional, cell-based
Readout label: IC50 (µM)
Supply the numeric figure in µM, leaving out any unit text.

Q: Complete the entry with IC50 for Oc1cccc2ccc(CCc3ccc4cccc(O)c4n3)nc12
A: 1.8
